Target: RelSeq HYD (residues 1–224) (Streptococcus dysgalactiae subsp. equisimilis)
Construct: His-tag (C); made in house; host or cells: BL21(DE3) Escherichia coli
Sequence (Q54089 1-224): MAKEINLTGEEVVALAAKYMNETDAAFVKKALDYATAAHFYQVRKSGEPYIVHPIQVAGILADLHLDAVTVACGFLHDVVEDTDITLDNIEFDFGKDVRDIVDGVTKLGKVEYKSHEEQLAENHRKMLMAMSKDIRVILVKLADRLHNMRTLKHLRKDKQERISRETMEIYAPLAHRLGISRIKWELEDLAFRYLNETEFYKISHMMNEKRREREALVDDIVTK
Experiment: Thermal shift assay on RelSeq HYD
Assay type: binding, S. equisimilis
Settings: titration 0.3–10 mM, pH 8
Recorded Kd values for a group of compounds are listed next.
Lab book: enter the figure in µM, no units written.

>>> value("O=C(O)c1ccc2[nH]cnc2c1")
1900

Sure, the documented Kd for O=C(O)c1cccc2[nH]cnc12 is 3300

###

Target: RelSeq SYNTH (residues 79–385) (Streptococcus dysgalactiae subsp. equisimilis, UniProt Q54089)
Sequence (Q54089 79-385): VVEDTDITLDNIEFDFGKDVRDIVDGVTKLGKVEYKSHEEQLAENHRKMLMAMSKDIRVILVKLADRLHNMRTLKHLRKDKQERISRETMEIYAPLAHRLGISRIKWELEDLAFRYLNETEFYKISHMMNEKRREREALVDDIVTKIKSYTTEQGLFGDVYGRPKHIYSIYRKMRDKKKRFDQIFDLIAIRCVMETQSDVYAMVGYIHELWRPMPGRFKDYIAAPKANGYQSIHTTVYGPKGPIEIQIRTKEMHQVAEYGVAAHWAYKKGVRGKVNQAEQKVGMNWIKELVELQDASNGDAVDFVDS
Label t when Kd < 6 mM; otherwise f.

Illustrative cases are given below, each with its answer.
>>> label_class("COc1cc(C(=O)O)ccc1N [A7]")
"t"
>>> label_class("Nc1ccc(C(=O)O)c(Cl)c1 [A6]")
"f"
>>> label_class("O=C(O)c1ccc2ocnc2c1 [BO1]")
"t"

Query string: Confirm or reject: Kd of O=C(O)c1ccc2[nH]ccc2c1 [I2] lies strictly below 6 mM
Result string: t

Query string: Confirm or reject: Kd of COc1ccc(C(=O)O)cc1N [A5] lies strictly below 6 mM
Result string: t
